Molecular target: Prostaglandin G/H synthase 2 (Homo sapiens)
Sequence (P35354 whole entry): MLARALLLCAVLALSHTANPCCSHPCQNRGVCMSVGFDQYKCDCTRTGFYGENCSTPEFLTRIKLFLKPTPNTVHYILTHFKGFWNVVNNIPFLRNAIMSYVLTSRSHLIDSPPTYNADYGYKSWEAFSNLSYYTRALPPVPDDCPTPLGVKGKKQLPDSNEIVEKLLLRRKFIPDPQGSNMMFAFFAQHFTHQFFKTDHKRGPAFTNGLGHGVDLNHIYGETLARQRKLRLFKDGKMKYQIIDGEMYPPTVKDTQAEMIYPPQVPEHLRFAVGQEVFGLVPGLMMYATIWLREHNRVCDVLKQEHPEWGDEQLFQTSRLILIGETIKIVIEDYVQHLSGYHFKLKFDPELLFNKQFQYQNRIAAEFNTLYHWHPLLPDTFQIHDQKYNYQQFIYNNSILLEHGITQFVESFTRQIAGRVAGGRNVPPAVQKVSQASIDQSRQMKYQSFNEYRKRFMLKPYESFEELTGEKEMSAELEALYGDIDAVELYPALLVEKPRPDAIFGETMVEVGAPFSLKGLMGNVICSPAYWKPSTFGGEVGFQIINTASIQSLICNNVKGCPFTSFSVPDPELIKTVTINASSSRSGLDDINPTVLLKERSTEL
Assay: Inhibition of human recombinant COX2 using ADHP as substrate after 20 mins by fluorescence assay
Criterion: IC50 strictly less than 1000 nM. Met: TRUE. Not met: FALSE.

COMPOUND STRUCTURE STRING: NS(=O)(=O)c1ccc(-n2nc(C(=O)NC3CCCCC3)nc2-c2ccccc2)cc1
CAT: TRUE
--
COMPOUND STRUCTURE STRING: COc1ccc(NC(=O)c2nc(-c3ccccc3)n(-c3ccc(S(N)(=O)=O)cc3)n2)cc1OC
CAT: FALSE
--
COMPOUND STRUCTURE STRING: NS(=O)(=O)c1ccc(-n2nc(C(=O)Nc3nc4ccccc4s3)nc2-c2ccccc2)cc1
CAT: TRUE
--
COMPOUND STRUCTURE STRING: NS(=O)(=O)c1ccc(-n2nc(C(=O)NCc3ccccc3)nc2-c2ccccc2)cc1
CAT: FALSE
--
COMPOUND STRUCTURE STRING: CC(C)NC(=O)c1nc(-c2ccccc2)n(-c2ccc(S(N)(=O)=O)cc2)n1
CAT: FALSE
--
COMPOUND STRUCTURE STRING: Cc1ccc(NC(=O)c2nc(-c3ccccc3)n(-c3ccc(S(N)(=O)=O)cc3)n2)cc1
CAT: FALSE
--
COMPOUND STRUCTURE STRING: COc1ccc(NC(=O)c2nc(-c3ccccc3)n(-c3ccc(S(N)(=O)=O)cc3)n2)cc1
CAT: TRUE

Field: next compound
is_below(IC50, 1000 nM) for "NS(=O)(=O)c1ccc(-n2nc(C(=O)Nc3ccc(Cl)cc3)nc2-c2ccccc2)cc1" ?
TRUE
